Assay: Solubility check of 20 wt % solutions in organic solvents
Assay type: physicochemical
Parameters: key: A: the compound dissolves at room temperature; B: the compound does not dissolve at room temperature but dissolves when heated to 60° C.; the compound does not dissolve even when heated to 60° C
Conditions: 20 wt % solution in methyl isobutyl ketone (MIBK); room temperature or heated to 60° C.

compound	Results of Solubility MIBK
C=CC(=O)OCCCCCCOc1ccc(OC(=O)C2CCC(C(=O)Oc3ccc(C4CCC(CCC)CC4)cc3/C=N/N(CCOCCOC)c3nc4ccccc4s3)CC2)cc1 (stereo not shown)	B
C=CC(=O)OCCCOc1ccc(OC(=O)C2CCC(COc3ccc(OCC4CCC(C(=O)Oc5ccc(OCCCOC(=O)C=C)cc5)CC4)c(/C=N/N(CCOCCOC)c4nc5ccccc5s4)c3)CC2)cc1 (stereo not shown)	B
C=CC(=O)OCCOCCOCCOc1ccc(OC(=O)C2CCC(C(=O)Oc3ccc(C4CCC(C5CCC(CCC)CC5)CC4)cc3/C=N/N(CCCCCC)c3nc4ccccc4s3)CC2)cc1 (stereo not shown)	C
C=CC(=O)OCCOCCOc1ccc(OC(=O)C2CCC(C(=O)Oc3ccc(OC(=O)C4CCC(C(=O)Oc5ccc(OCCOCCOC(=O)C=C)cc5)CC4)c4sc(-c5cc6c(C)cc(C)cc6o5)nc34)CC2)cc1 (stereo not shown)	C
C=CC(=O)OCCOCCOC(=O)C1CCC(C(=O)OC2CCC(C(=O)Oc3ccc(OC(=O)C4CCC(OC(=O)C5CCC(C(=O)OCCOCCOC(=O)C=C)CC5)CC4)c4c3SC(=C3C(=O)N(c5ccccc5)N=C3C(=O)OCC)S4)CC2)CC1 (stereo not shown)	C
C=CC(=O)OCCCCCCOc1ccc(OC(=O)C2CCC(C(=O)Oc3ccc(OC(=O)C4CCC(C(=O)Oc5ccc(OCCCCCCOC(=O)C=C)cc5)CC4)c(/C=N/N(COCCOC)c4nc5ccccc5s4)c3)CC2)cc1 (stereo not shown) [Compound R-1, reference compound]	C
C=CC(=O)OCCOCCOCCOc1ccc(C(=O)Oc2ccc(-c3ccc(CCC)cc3)cc2/C=N/Nc2nc3ccccc3s2)cc1	A
C=CC(=O)OCCOCCOCCOc1ccc(OC(=O)C2CCC(C(=O)Oc3ccc(C4CCC(CCC)CC4)cc3/C=N/N(CCCCCC)c3nc4ccccc4s3)CC2)cc1 (stereo not shown)	C
C=CC(=O)OCCCCCCOc1ccc(OC(=O)C2CCC(C(=O)Oc3ccc(C4CCC(C5CCC(CCC)CC5)CC4)cc3/C=N/N(CCOCCOC)c3nc4ccccc4s3)CC2)cc1 (stereo not shown)	C
C=CC(=O)OCCOCCOCCOc1ccc(OC(=O)C2CCC(C(=O)Oc3ccc(C4CCC(CCC)CC4)cc3/C=N/Nc3nc4ccccc4s3)CC2)cc1 (stereo not shown)	B

* * *

Experiment: Solubility check of 20 wt % solutions in organic solvents
Type: physicochemical
Parameters: key: A: the compound dissolves at room temperature; B: the compound does not dissolve at room temperature but dissolves when heated to 60° C.; the compound does not dissolve even when heated to 60° C
Details: 20 wt % solution in chloroform; room temperature or heated to 60° C.

molecule	Results of Solubility Chloroform
C=CC(=O)OCCOCCOCCOc1ccc(OC(=O)C2CCC(C(=O)Oc3ccc(C4CCC(CCC)CC4)cc3/C=N/N(CCCCCC)c3nc4ccccc4s3)CC2)cc1 (centres unmarked)	A
C=CC(=O)OCCCCCCOc1ccc(OC(=O)C2CCC(COc3ccc(OCC4CCC(C(=O)Oc5ccc(OCCCCCCOC(=O)C=C)cc5)CC4)c(/C=N/N(CCOCCOCCOC(=O)C=C)c4nc5ccccc5s4)c3)CC2)cc1 (centres unmarked)	A
C=CC(=O)OCCCCOC(=O)C1CCC(C(=O)OC2CCC(C(=O)Oc3ccc(OC(=O)C4CCC(OC(=O)C5CCC(C(=O)OCCCCOC(=O)C=C)CC5)CC4)c4c3SC(=C(C#N)C(=O)OCCOCCOC(=O)C=C)S4)CC2)CC1 (centres unmarked)	A
C=CC(=O)OCCCCCCOc1ccc(OC(=O)C2CCC(COc3ccc(C4CCC(CCC)CC4)cc3/C=N/N(CCOCCOC)c3nc4ccccc4s3)CC2)cc1 (centres unmarked)	A
C=CC(=O)OCCCCCCOc1ccc(OC(=O)C2CCC(COc3ccc(-c4ccc(CCC)cc4)c(/C=N/N(CCOCCOC)c4nc5ccccc5s4)c3)CC2)cc1 (centres unmarked)	A

* * *

Test: Solubility check of 20 wt % solutions in organic solvents
Assay type: physicochemical
Parameters: key: A: the compound dissolves at room temperature; B: the compound does not dissolve at room temperature but dissolves when heated to 60° C.; the compound does not dissolve even when heated to 60° C
Settings: 20 wt % solution in chloroform; room temperature or heated to 60° C.

compound	Results of Solubility Chloroform
C=CC(=O)OCCOCCOCCOc1ccc(OC(=O)C2CCC(C(=O)Oc3ccc(C4CCC(C5CCC(CCC)CC5)CC4)cc3/C=N/N(CCCCCC)c3nc4ccccc4s3)CC2)cc1 (stereo not drawn)	A
C=CC(=O)OCCCCCCOc1ccc(OC(=O)C2CCC(C(=O)Oc3ccc(C4CCC(CCC)CC4)cc3/C=N/N(CCOCCOC)c3nc4ccccc4s3)CC2)cc1 (stereo not drawn)	A
C=CC(=O)OCCOCCOC(=O)C1CCC(C(=O)OC2CCC(C(=O)Oc3ccc(OC(=O)C4CCC(OC(=O)C5CCC(C(=O)OCCOCCOC(=O)C=C)CC5)CC4)c4c3SC(=C3C(=O)N(c5ccccc5)N=C3C(=O)OCC)S4)CC2)CC1 (stereo not drawn)	A

* * *

Assay: Solubility check of 20 wt % solutions in organic solvents
Type: physicochemical
Set-up: key: A: the compound dissolves at room temperature; B: the compound does not dissolve at room temperature but dissolves when heated to 60° C.; the compound does not dissolve even when heated to 60° C
Details: 20 wt % solution in cyclopentanone; room temperature or heated to 60° C.
measured parameter: Results of Solubility Cyclopentanone

compound	measured parameter	value observed
C=CC(=O)OCCOCCOCCOc1ccc(OC(=O)C2CCC(C(=O)Oc3ccc(C4CCC(C5CCC(CCC)CC5)CC4)cc3/C=N/N(CCCCCC)c3nc4ccccc4s3)CC2)cc1 (centres unmarked) [Compound I-4]	Results of Solubility Cyclopentanone	B
C=CC(=O)OCCCCCCOc1ccc(OC(=O)C2CCC(C(=O)Oc3ccc(C4CCC(CCC)CC4)cc3/C=N/N(CCOCCOC)c3nc4ccccc4s3)CC2)cc1 (centres unmarked) [Compound I-7]	Results of Solubility Cyclopentanone	A
C=CC(=O)OCCOCCOC(=O)C1CCC(C(=O)OC2CCC(C(=O)Oc3ccc(OC(=O)C4CCC(OC(=O)C5CCC(C(=O)OCCOCCOC(=O)C=C)CC5)CC4)c4c3SC(=C3C(=O)N(c5ccccc5)N=C3C(=O)OCC)S4)CC2)CC1 (centres unmarked) [Compound I-14]	Results of Solubility Cyclopentanone	B
C=CC(=O)OCCOCCOCCOc1ccc(OC(=O)C2CCC(C(=O)Oc3ccc(C4CCC(CCC)CC4)cc3/C=N/Nc3nc4ccccc4s3)CC2)cc1 (centres unmarked) [Compound I-2]	Results of Solubility Cyclopentanone	A
C=CC(=O)OCCCCCCOc1ccc(OC(=O)C2CCC(COc3ccc(-c4ccc(CCC)cc4)c(/C=N/N(CCOCCOC)c4nc5ccccc5s4)c3)CC2)cc1 (centres unmarked) [Compound I-11]	Results of Solubility Cyclopentanone	A
C=CC(=O)OCCOCCOCCOc1ccc(OC(=O)C2CCC(C(=O)Oc3ccc(OC(=O)C4CCC(C(=O)Oc5ccc(OCCOCCOCCOC(=O)C=C)cc5)CC4)c4sc(-c5ccc([N+](=O)[O-])cc5)nc34)CC2)cc1 (centres unmarked) [Compound I-12]	Results of Solubility Cyclopentanone	B
C=CC(=O)OCCCCCCOc1ccc(OC(=O)C2CCC(COc3ccc(OCC4CCC(C(=O)Oc5ccc(OCCCCCCOC(=O)C=C)cc5)CC4)c(/C=N/N(CCOCCOC)c4nc5ccccc5s4)c3)CC2)cc1 (centres unmarked) [Compound I-6]	Results of Solubility Cyclopentanone	A
C=CC(=O)OCCCCCCOc1ccc(OC(=O)C2CCC(C(=O)Oc3ccc(OC(=O)C4CCC(C(=O)Oc5ccc(OCCCCCCOC(=O)C=C)cc5)CC4)c(/C=N/N(COCCOC)c4nc5ccccc5s4)c3)CC2)cc1 (centres unmarked) [Compound R-1, reference compound]	Results of Solubility Cyclopentanone	B
C=CC(=O)OCCOCCOCCOc1ccc(OC(=O)C2CCC(COc3ccc(OCC4CCC(C(=O)Oc5ccc(OCCOCCOCCOC(=O)C=C)cc5)CC4)c(/C=N/N(CCCCCC)c4nc5ccccc5s4)c3)CC2)cc1 (centres unmarked) [Compound I-5]	Results of Solubility Cyclopentanone	A
C=CC(=O)OCCOCCOc1ccc(OC(=O)C2CCC(C(=O)Oc3ccc(OC(=O)C4CCC(C(=O)Oc5ccc(OCCOCCOC(=O)C=C)cc5)CC4)c4sc(-c5cc6c(C)cc(C)cc6o5)nc34)CC2)cc1 (centres unmarked) [Compound I-13]	Results of Solubility Cyclopentanone	B
C=C(C)C(=O)OCCCCCCOc1ccc(OC(=O)C2CCC(COc3ccc(OCC4CCC(C(=O)Oc5ccc(OCCCCCCOC(=O)C(=C)C)cc5)CC4)c(/C=N/N(CCOCCOC)c4nc5ccccc5s4)c3)CC2)cc1 (centres unmarked) [Compound I-16]	Results of Solubility Cyclopentanone	A
C=CC(=O)OCCCCOC(=O)C1CCC(C(=O)OC2CCC(C(=O)Oc3ccc(OC(=O)C4CCC(OC(=O)C5CCC(C(=O)OCCCCOC(=O)C=C)CC5)CC4)c4c3SC(=C(C#N)C(=O)OCCOCCOC(=O)C=C)S4)CC2)CC1 (centres unmarked) [Compound I-15]	Results of Solubility Cyclopentanone	B
C=CC(=O)OCCCCCCOc1ccc(OC(=O)C2CCC(COc3ccc(C4CCC(CCC)CC4)cc3/C=N/N(CCOCCOC)c3nc4ccccc4s3)CC2)cc1 (centres unmarked) [Compound I-10]	Results of Solubility Cyclopentanone	A
C=CC(=O)OCCCOC(=O)C1CCC(C(=O)OC2CCC(C(=O)Oc3ccc(OC(=O)C4CCC(OC(=O)C5CCC(C(=O)OCCCOC(=O)C=C)CC5)CC4)c4c3SC(=C3C(=O)N(c5ccccc5)N=C3C(=O)OCC)S4)CC2)CC1 (centres unmarked) [Compound R-3, reference compound]	Results of Solubility Cyclopentanone	C
C=CC(=O)OCCOCCOCCOc1ccc(OC(=O)C2CCC(C(=O)Oc3ccc(C4CCC(CCC)CC4)cc3/C=N/N(CCCCCC)c3nc4ccccc4s3)CC2)cc1 (centres unmarked) [Compound I-3]	Results of Solubility Cyclopentanone	A
C=CC(=O)OCCCCCCOc1ccc(OC(=O)C2CCC(COc3ccc(OCC4CCC(C(=O)Oc5ccc(OCCCCCCOC(=O)C=C)cc5)CC4)c(/C=N/N(CCOCCOCCOC(=O)C=C)c4nc5ccccc5s4)c3)CC2)cc1 (centres unmarked) [Compound I-9]	Results of Solubility Cyclopentanone	A
C=CC(=O)OCCCCCCOc1ccc(OC(=O)C2CCC(C(=O)Oc3ccc(OC(=O)C4CCC(C(=O)Oc5ccc(OCCCCCCOC(=O)C=C)cc5)CC4)c4sc(-c5ccc([N+](=O)[O-])cc5)nc34)CC2)cc1 (centres unmarked) [Compound R-2, reference compound]	Results of Solubility Cyclopentanone	C
C=CC(=O)OCCCOc1ccc(OC(=O)C2CCC(COc3ccc(OCC4CCC(C(=O)Oc5ccc(OCCCOC(=O)C=C)cc5)CC4)c(/C=N/N(CCOCCOC)c4nc5ccccc5s4)c3)CC2)cc1 (centres unmarked) [Compound I-8]	Results of Solubility Cyclopentanone	A
C=CC(=O)OCCOCCOCCOc1ccc(C(=O)Oc2ccc(-c3ccc(CCC)cc3)cc2/C=N/Nc2nc3ccccc3s2)cc1 [Compound I-1]	Results of Solubility Cyclopentanone	A
C=CC(=O)OCCCCCCOc1ccc(OC(=O)C2CCC(C(=O)Oc3ccc(C4CCC(C5CCC(CCC)CC5)CC4)cc3/C=N/N(CCOCCOC)c3nc4ccccc4s3)CC2)cc1 (centres unmarked) [Compound I-17]	Results of Solubility Cyclopentanone	B
